Data provenance: patent US8143421B2

Tested on: mock-infected MT4 cells
Assay: Toxicity on mock-infected MT4 cells (CC50)
Conditions: pCC50 value as determined with mock transfected cells
The reader will find reported Tox (pCC50) values listed item by item below.

// known answers, use as guide
What does the data say about its Tox (pCC50)? Entry: `Cc1cc(OCC(=O)N[C@@H](Cc2ccccc2)[C@H](O)CN(CC(C)C)S(=O)(=O)c2ccc3nc[nH]c3c2)no1`
<4

Entry to check: `COC(=O)Nc1nc2ccc(S(=O)(=O)N(CC(C)C)C[C@@H](O)[C@H](Cc3ccccc3)NC(=O)COc3c(C)cc(N(C)C)cc3C)cc2[nH]1`
<4

Entry to check: `Cc1c(N)cccc1C(=O)N[C@@H](Cc1ccccc1)[C@H](O)CN(CC(C)C)S(=O)(=O)c1ccc2nc[nH]c2c1`
<4

Further cases:
What does the data say about its Tox (pCC50)? Entry: `Cc1cccc(C)c1OCC(=O)N[C@@H](Cc1ccccc1)[C@H](O)CN(CC(C)C)S(=O)(=O)c1ccc2ncn(CCc3ccccc3)c2c1`
<4

Entry to check: `COC(=O)Nc1nc2ccc(S(=O)(=O)N(CC(C)C)C[C@@H](O)[C@H](Cc3ccccc3)NC(=O)c3ccc(N)cc3C)cc2[nH]1`
4.1

Entry to check: `COC(=O)Nc1nc2ccc(S(=O)(=O)N(CC(C)C)C[C@@H](O)[C@H](Cc3ccccc3)NC(=O)c3ccc([N+](=O)[O-])cc3C)cc2[nH]1`
<4

* * *

Tested on: mutant F
Assay: Antiviral spectrum, fold resistance towards mutant F
Format: cell-based
Details: FR=IC50(mutant strain)/IC50(HIV-1 strain LAI)
The reader will find reported FR towards mutant F values listed item by item below.
# answer = number (no unit)

What does the data say about its FR towards mutant F? Entry: COC(=O)Nc1nc2ccc(S(=O)(=O)N(CC(C)C)C[C@@H](O)[C@H](Cc3ccccc3)NC(=O)COc3c(C)cccc3C)cc2[nH]1 [Compound 6]
10

Entry to check: `CC(C)CN(C[C@@H](O)[C@H](Cc1ccccc1)NC(=O)O[C@H]1CCOC1)S(=O)(=O)c1ccc2nc(NC(=O)NCCN(C)C)[nH]c2c1`
4.3

Entry to check: CC(C)CN(CC(O)C(Cc1ccccc1)NC(=O)OC1COC2OCCC12)S(=O)(=O)c1ccc2ncn(CCc3ccccc3)c2c1 (stereo not drawn)
78

Shift focus to the following entry.
What does the data say about its FR towards mutant F? Entry: `CC(C)CN(C[C@@H](O)[C@H](Cc1ccccc1)NC(=O)OCc1cncs1)S(=O)(=O)c1ccc2nc[nH]c2c1`
23

* * *

System: mutant A
Format: cell-based
Details: FR=IC50(mutant strain)/IC50(HIV-1 strain LAI)
Each entry gets not fulfilled if its FR value towards mutant A stays under 3, and fulfilled if its FR value towards mutant A is 3 or above.

Answered cases to consult:
Could you tell me if the measured FR value towards mutant A of `CC(C)CN(C[C@@H](O)[C@H](Cc1ccccc1)NC(=O)OCc1cccnc1)S(=O)(=O)c1ccc2nc(N)[nH]c2c1` reaches 3 or more?
not fulfilled

Entry to check: CC(C)CN(CC(O)C(Cc1ccccc1)NC(=O)OC1COC2OCCC12)S(=O)(=O)c1ccc2nc(CO)[nH]c2c1 (stereo not drawn)
not fulfilled

Entry to check: `CC(C)CN(C[C@@H](O)[C@H](Cc1ccccc1)NC(=O)O[C@H]1CCOC1)S(=O)(=O)c1ccc2nc(NC(=O)NCCN(C)C)[nH]c2c1`
fulfilled

Entry to check: `CC(C)CN(C[C@@H](O)[C@H](Cc1ccccc1)NC(=O)OCc1cncs1)S(=O)(=O)c1ccc2ncn(Cc3ccccc3)c2c1`
fulfilled

Entry to check: `COC(=O)Nc1nc2ccc(S(=O)(=O)N(CC(C)C)C[C@@H](O)[C@H](Cc3ccccc3)NC(=O)c3ccc(N)cc3C)cc2[nH]1`
not fulfilled

Entry to check: `COC(=O)Nc1nc2ccc(S(=O)(=O)N(CC(C)C)C[C@@H](O)[C@H](Cc3ccccc3)NC(=O)COc3c(C)cc(N(C)C)cc3C)cc2[nH]1`
fulfilled

Further cases:
Could you tell me if the measured FR value towards mutant A of `Cc1cc(OCC(=O)N[C@@H](Cc2ccccc2)[C@H](O)CN(CC(C)C)S(=O)(=O)c2ccc3nc[nH]c3c2)no1` reaches 3 or more?
fulfilled

Entry to check: `CC(C)CN(C[C@@H](O)[C@H](Cc1ccccc1)NC(=O)OC(C)(C)C)S(=O)(=O)c1ccc2nc(N)n(Cc3ccccc3)c2c1`
fulfilled

Entry to check: `Cc1cccc(C)c1OCC(=O)N[C@@H](Cc1ccccc1)[C@H](O)CN(CC(C)C)S(=O)(=O)c1ccc2ncn(CCc3ccccc3)c2c1`
fulfilled

Entry to check: `COC(=O)Nc1nc2ccc(S(=O)(=O)N(CC(C)C)C[C@@H](O)[C@H](Cc3ccccc3)NC(=O)c3ccc(O)cc3C)cc2[nH]1`
not fulfilled

Entry to check: COC(=O)Nc1nc2ccc(S(=O)(=O)N(CC(C)C)C[C@@H](O)[C@H](Cc3ccccc3)NC(=O)COc3c(C)cccc3C)cc2[nH]1 [Compound 6]
not fulfilled

Entry to check: `Cc1nc2ccc(S(=O)(=O)N(CC(C)C)C[C@@H](O)[C@H](Cc3ccccc3)NC(=O)O[C@H]3CO[C@H]4OCC[C@H]43)cc2n1Cc1ccccc1`
fulfilled
